Target: ERβ (Homo sapiens, UniProt Q92731)
Sequence (Q92731 whole entry): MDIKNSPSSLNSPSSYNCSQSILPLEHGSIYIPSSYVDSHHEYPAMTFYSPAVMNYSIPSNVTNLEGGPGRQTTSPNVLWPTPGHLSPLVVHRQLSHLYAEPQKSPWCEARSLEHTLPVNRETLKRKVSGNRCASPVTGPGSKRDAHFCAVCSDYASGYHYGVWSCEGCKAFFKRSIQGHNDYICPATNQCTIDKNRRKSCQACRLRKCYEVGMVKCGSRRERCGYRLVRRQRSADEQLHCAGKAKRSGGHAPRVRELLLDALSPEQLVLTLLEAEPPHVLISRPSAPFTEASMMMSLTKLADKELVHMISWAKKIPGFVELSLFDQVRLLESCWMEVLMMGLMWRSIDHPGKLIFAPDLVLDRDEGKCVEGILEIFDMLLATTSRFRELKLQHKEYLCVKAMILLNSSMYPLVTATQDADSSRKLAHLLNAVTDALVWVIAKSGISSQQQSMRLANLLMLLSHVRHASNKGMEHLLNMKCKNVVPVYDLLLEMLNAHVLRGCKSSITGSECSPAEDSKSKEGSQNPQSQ
Assay: Phage ELISA / fingerprint on ER immobilized on biotinylated ERE (Examples 2.3-2.5)
Assay type: binding
Set-up: purchased PanVera Corporation, Madison, WI; key: semiquantitative scale of 0 to 7+; 1+: semiquantitative scale of 0 to 7+; 2+: semiquantitative scale of 0 to 7+; 3+: semiquantitative scale of 0 to 7+; 4+: semiquantitative scale of 0 to 7+; 5+: semiquantitative scale of 0 to 7+; 6+: semiquantitative scale of 0 to 7+; semiquantitative scale of 0 to 7+
Settings: ERβ and Estradiol (1 µM)
# maps each entry to its binding activity, ERβ and Estradiol
Readout label: binding activity, ERβ and Estradiol

1. SSKLYCLLDESYCSR [Peptide 21b-β] :: 7+
2. SRECVGGWCLAELSR [Peptide 18b-β] :: 7+
3. SSRPSFTIPWWFDDPSRSR [Peptide 33E-β] :: 7+
